- TARGET DESC: human 15-PGDH (Homo sapiens, UniProt P15428)
- Construct: comprising residues 3–256 of the human HPGD gene (GenBank identifier: 1203982); His6 (GHHHHHH, behind the TEV site) (C, cleaved yes); made in house; host or cells: E. coli BL21(DE3)-R3
- Sequence (P15428 3-256): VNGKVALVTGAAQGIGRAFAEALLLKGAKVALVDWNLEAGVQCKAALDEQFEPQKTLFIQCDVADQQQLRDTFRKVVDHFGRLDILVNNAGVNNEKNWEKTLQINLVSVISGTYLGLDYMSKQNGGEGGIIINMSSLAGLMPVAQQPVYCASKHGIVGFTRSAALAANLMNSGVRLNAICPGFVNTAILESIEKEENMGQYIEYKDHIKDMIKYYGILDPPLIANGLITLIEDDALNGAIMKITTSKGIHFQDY
- PROTOCOL SUMMARY: Compound titrations of re-synthesized inhibitors in the kinetic assay
- Format: biochemical
- CONDITIONS USED: 10 nM 15-PGDH, 30 µM PGE2, 200 µM NAD+, 25°C, lower percent substrate conversion; read-out: IC50, re-synthesized compounds
Reported IC50 values for the following molecules.
Response body: numeric value in nM, unit text excluded.

- ITEM SMILES: "Cc1cccc(-n2cnc3cc(C(=O)N4CCCCC4)ccc32)c1"
  TEST READOUT: "IC50"
  QUANTITATIVE RESULT: 7.9

Please examine the following record next.
Input line: Answer with the recorded IC50 of Cc1cc(-c2nnc3n2CCCCC3)c(C)n1-c1ccccc1 only.
Output line: 15
